test: viability gain of MRP-1-high H69AR cells under doxorubicin, pilot screen, MRP-1 activator project, CellTiter-Glo, duplicate (AID 807); conditions: H69AR viability with doxorubicin, CellTiter-Glo luminescence; at 10 µM; stronger effect = higher value;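 also: compound pretreatment 18-22 h then 72 h combined with doxorubicin; 0% = doxorubicin alone and 100% = vehicle without doxorubicin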
ASSAY_READOUT: viability increase (%)

COMPOUND	RESULT
CC(C)N(C(=O)COc1ccc(Br)cc1Cl)C(C)C	0.81
CC(c1ccc(Br)cc1)N1CC23C=CC(O2)C(C(=O)O)C3C1=O (centres undefined)	-0.16
CCOc1ccccc1NC(=O)c1c(NC(=O)CNCc2ccco2)sc2c1CCC2	-6.75
CC(C)(C)SCCNS(=O)(=O)c1ccccc1	-0.28
COc1ccc(C2C(C(=O)N3CC(C)CC(C)C3)c3ccccc3C(=O)N2C)cc1 (centres undefined)	-1.09
CC(NC(=O)COc1ccccc1)C(c1ccccc1)N1CCN(C)CC1 (centres undefined)	-3.94
CC1CCN(CCCNC(=O)c2cc3c(=O)n(C)c4ccccc4c3n2C)CC1	-5.04
Cc1csc(NC(=O)CSc2nnc(Cc3cccn3C)n2CCc2ccccc2)n1	-3.58
O=C(Nc1nn[nH]n1)c1cccc(Oc2ccccc2)c1	-0.81
COc1ccc(OCCSc2ncnc3nc[nH]c23)cc1	-3.5
COc1ccccc1NC(=O)CSc1nc(O)cc(=O)n1-c1ccccc1OC	0.76
CC1Cc2ccccc2N1C(=O)Cn1cnc2ccccc2c1=O (centres undefined)	0.12
O=C1C=C(NCc2ccco2)CC(c2ccc(Cl)cc2)C1 (centres undefined)	-2.53
Cc1nc(N2CCCCC2)c2sc(=S)n(C)c2n1	1.13
Cc1nc2ccccc2c2oc(C(=O)NCCCN3CCC(C)CC3)cc12	-5.7
CCc1noc2c1/C(=N\O)CC(c1ccccc1)C2 (centres undefined)	2.87
CCCn1c(CNS(=O)(=O)c2ccc(C)cc2)nc2ccccc21	-2.43
O=C(c1ccccc1)c1ccc(OC(=O)N2CCOCC2)cc1	1.36
CC(c1cccnc1)N(CCN(C)C)C(=O)Nc1ccc(Cl)c(Cl)c1 (centres undefined)	-3.34
CC(=O)N1c2ccccc2C(=O)C1N1CCCCC1 (centres undefined)	-3.42
CCCCCn1c(=O)[nH]c2cc(C(=O)NCCCN(CC)CC)ccc2c1=O	-4.48
CCOc1ccccc1NC(=O)CSc1nnc(-c2cnccn2)n1C	-3.17
O=C(NCc1cccnc1)NC1(C(F)(F)F)Oc2ccccc2O1	-5.46
CCOC(=O)c1cnc2ccc(C(=O)OC)cc2c1NCCN1CCOCC1	-4.73
